Recorded MIC by entry
test system: NDM-1 K. pneumoniae XJ155017; experiment: Antibiotic susceptibility (MIC), automated identification system; format: cell-based; details: Klebsiella pneumoniae; Supplementary Table 2

SMILES_RECORD	VALUE_OBSERVED
C[C@@H](O)[C@H]1C(=O)N2C(C(=O)O)=C(S[C@@H]3CN[C@H](C(=O)N(C)C)C3)[C@H](C)[C@H]12	> 8 µg/mL
CC(C)(O/N=C(\C(=O)N[C@@H]1C(=O)N2C(C(=O)[O-])=C(C[n+]3ccccc3)CS[C@H]12)c1csc(N)n1)C(=O)O	> 16 µg/mL
C[C@@H](O)[C@H]1C(=O)N2C(C(=O)O)=C(SCCN=CN)C[C@H]12	> 8 µg/mL

GET /values?readout=MIC&system=NDM-1 K. pneumoniae XJ155017&item= NCC[C@H](O)C(=O)N[C@@H]1C[C@H](N)[C@@H](O[C@H]2O[C@H](CN)[C@@H](O)[C@H](O)[C@H]2O)[C@H](O)[C@H]1O[C@H]1O[C@H](CO)[C@@H](O)[C@H](N)[C@H]1O ≤ 8 µg/mL

Data provenance: paper PMC6684654
